Test system: MOLT-4 leukemia
Test Method Notes: NCI tumour cell line growth inhibition, 48 h
Exercise: for every item that follows, state its recorded log10(TGI).
Use the decimal logarithm of TGI (µM).

CCCCCCCC/C=C\CCCCCCCCNc1ccn(C2OC(COP(=O)(O)OC3CC(n4cc(F)c(=O)[nH]c4=O)OC3CO)C(O)C2O)c(=O)n1 (stereo not drawn)    1.31
O=S(=O)(/C=C/C=C/S(=O)(=O)c1ccccc1)c1ccccc1    0.27
COc1cc2c(c(OC)c1OC)-c1ccc([O-])c(=O)cc1[C@@H](NC(C)=O)CC2.COc1cc2c(c(OC)c1OC)-c1ccc([O-])c(=O)cc1[C@@H](NC(C)=O)CC2.[Cu+2]    1.32
COC(=O)[C@@H]1O[C@]12C(CO[Si](C)(C)C(C)(C)C)OC(n1ccc(=O)[nH]c1=O)C2O[Si](C)(C)C(C)(C)C (stereo partly drawn)    1.88

Now consider a different compound.
Challenge: // returns reported log10(TGI) for input "CCOC(=O)c1sc2nc(SC)nc(Nc3ccc4c(c3)OCCCO4)c2c1N"
Response given: 0.92

###

System: IGROV1 ovarian
Test Method Notes: NCI tumour cell line growth inhibition, 48 h
Parameter Measured: TGI

O=S(=O)(NCCNc1cc(-c2cn(-c3ccccc3)nc2-c2cccc(O)c2)ccn1)c1ccc(C(F)(F)F)cc1    5.89 µM

Below are some molecules; for each one, tell me its TGI.
1. CC(N)Cc1cccc(C(F)(F)F)c1 (centres undefined)
2. CC[O-].CC[O-].[O-]c1ccccc1C=Nc1ccccc1.[O-]c1ccccc1C=Nc1ccccc1.[Ti+4]

Response given:
["> 100 µM", "> 100 µM"]

Below are some molecules; for each one, tell me its TGI.
1. N#CN=Nc1cc(Cl)c(N=NC#N)cc1Cl
2. CS(=O)(=O)CCNCc1ccc(-c2ccc3ncnc(Nc4ccc(OCc5ccccc5)c(C(F)(F)F)c4)c3c2)o1

Response given:
1. > 100 µM
2. > 22.2 µM

Below are some molecules; for each one, tell me its TGI.
1. Cc1[nH]c2c(C)ccc(C)c2c1CC(=O)O
2. CC(=O)OCC1OC(n2c(C)c(N=Nc3ccc(C)cc3)c(C)c(C#N)c2=S)C(OC(C)=O)C(OC(C)=O)C1OC(C)=O (centres undefined)
3. CC(=O)C1(c2ccccc2)CCN(Cn2sc3nc(C)cc(C)c3c2=O)CC1
4. Cc1cc(NC(=O)c2ccc(NS(=O)(=O)CCO)cc2N2CCC3(CC2)CC3)nc(N2CCC(F)(F)CC2)n1

Response given:
["> 100 µM", "> 100 µM", "> 100 µM", "30.6 µM"]

###

Tested on: M14 melanoma
Test Method Notes: NCI tumour cell line growth inhibition, 48 h; in the data active = GI50 below about 0.43 µM; inactive = the rest
Choose the fitting class; nothing outside active, inactive is accepted.

For orientation, consider the following solved cases.
CCN(Cc1ccc(F)cc1)c1ccc(CO)c(Cl)c1    inactive
O=C1C2CC3C(CC2C(=O)[N]1[Sn]([c]1ccccc1)([c]1ccccc1)[c]1ccccc1)C1(Cl)C(Cl)=C(Cl)C3(Cl)C1(Cl)Cl (configuration not stated)    active

Challenge: Recorded test call requested for "Cc1cc(NC(=O)c2ccc(NS(=O)(=O)CCO)cc2N2CCC3(CC2)CC3)nc(N2CCC(F)(F)CC2)n1"
Response given: inactive

Challenge: // repeat for "COc1ccc(C(=O)/C=C/c2cc3ccccc3[nH]c2=O)cc1" and report
Response given: inactive

Challenge: // repeat for "CCCCCCCCN(CCCCCCCC)C(=N)c1ccnc2ccccc12" and report
Response given: active

Challenge: // repeat for "CC(=O)[O-].CC(=O)[O-].[Mn+2].c1ccc(/C(=N\Nc2ccccn2)c2ccccn2)cc1" and report
Response given: active

Challenge: // repeat for "O=S(=O)(NCCNc1cc(-c2cn(-c3ccccc3)nc2-c2cccc(O)c2)ccn1)c1ccc(C(F)(F)F)cc1" and report
Response given: inactive
